assay: Liver microsomal stability, monkey; conditions: monkey, microsomes
assay_metric: half-life

(Q) Which half-life reading was recorded for the compound c1csc([C@@H]2CNCCO2)c1 [Compound 50B] ?
(A) > 3.1 h

----------
assay: Pharmacokinetics study in rats; format: in vivo, Sprague–Dawley rats; settings: male, Sprague-Dawley, rat, plasma, po, 5 mg/kg, i.g.
assay_metric: Tmax

(Q) Tell me the measured Tmax of c1csc([C@@H]2CNCCO2)c1 [Compound 50B] , please.
(A) ~50 min

----------
molecular target: human 5-HT2A (Homo sapiens); experiment: Calcium (FLIPR) assay, agonist activity at human 5-HT2A
Sequence (P28223 whole entry): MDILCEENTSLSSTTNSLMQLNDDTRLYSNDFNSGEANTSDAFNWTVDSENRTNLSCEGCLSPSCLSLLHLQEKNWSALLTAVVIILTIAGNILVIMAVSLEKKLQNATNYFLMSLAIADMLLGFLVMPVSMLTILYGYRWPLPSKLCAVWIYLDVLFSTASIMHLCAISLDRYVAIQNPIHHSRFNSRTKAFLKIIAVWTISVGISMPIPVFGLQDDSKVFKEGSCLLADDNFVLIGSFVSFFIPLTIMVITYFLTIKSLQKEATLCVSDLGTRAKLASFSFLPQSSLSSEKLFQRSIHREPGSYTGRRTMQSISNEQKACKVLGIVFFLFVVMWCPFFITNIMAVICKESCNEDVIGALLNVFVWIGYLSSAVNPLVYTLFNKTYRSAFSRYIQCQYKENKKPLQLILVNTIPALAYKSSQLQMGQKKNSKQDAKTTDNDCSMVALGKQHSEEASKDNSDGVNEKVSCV
assay_metric: pEC50
API: returns pEC50 as number; meaning -log10 of concentration in mol/L.

(Q) Which pEC50 reading was recorded for the compound c1csc([C@@H]2CNCCO2)c1 [Compound 50B] ?
(A) 4.21

----------
Target: human TAAR1 (Homo sapiens)
Sequence (Q96RJ0 1-339): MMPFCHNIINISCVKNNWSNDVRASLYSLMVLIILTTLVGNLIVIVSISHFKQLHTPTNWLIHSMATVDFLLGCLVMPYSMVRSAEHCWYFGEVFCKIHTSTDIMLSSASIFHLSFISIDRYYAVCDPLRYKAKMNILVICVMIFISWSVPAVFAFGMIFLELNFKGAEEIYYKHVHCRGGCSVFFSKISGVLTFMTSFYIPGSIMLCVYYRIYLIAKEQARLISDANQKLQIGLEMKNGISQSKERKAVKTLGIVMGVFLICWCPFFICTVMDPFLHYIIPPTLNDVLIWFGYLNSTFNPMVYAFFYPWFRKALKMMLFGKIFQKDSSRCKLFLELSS
Assay: cAMP assay, functional agonist activity at human TAAR1
Recorded EC50, one value per entry.
Numbers only here, please. The scale is µM.

c1csc([C@H]2CNCCO2)c1 [Compound 50A] :: 6.25

(Q) Can you share its EC50? I mean this compound: c1csc([C@@H]2CNCCO2)c1 [Compound 50B]
(A) 0.405

----------
target: human 5-HT1A (Homo sapiens, UniProt P08908); assay: Calcium (FLIPR) assay, agonist activity at human 5-HT1A
Sequence (P08908 whole entry): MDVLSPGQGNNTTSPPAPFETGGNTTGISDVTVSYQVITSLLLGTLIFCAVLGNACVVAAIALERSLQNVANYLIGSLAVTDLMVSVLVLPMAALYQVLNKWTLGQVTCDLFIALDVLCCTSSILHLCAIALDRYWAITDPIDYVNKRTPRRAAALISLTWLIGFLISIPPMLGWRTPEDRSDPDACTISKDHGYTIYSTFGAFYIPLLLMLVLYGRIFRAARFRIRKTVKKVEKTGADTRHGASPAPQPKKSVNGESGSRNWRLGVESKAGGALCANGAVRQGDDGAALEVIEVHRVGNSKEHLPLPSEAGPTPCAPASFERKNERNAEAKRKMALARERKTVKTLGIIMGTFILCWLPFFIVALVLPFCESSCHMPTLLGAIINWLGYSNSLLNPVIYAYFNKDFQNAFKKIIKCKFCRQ
assay_metric: EC50 (µM)
Only the number, expressed in µM, is required.

(Q) Look at this compound and give its reported EC50. c1csc([C@@H]2CNCCO2)c1 [Compound 50B]
(A) 99.8

----------
assay: Pharmacokinetics study in rats; assay type: in vivo, Sprague–Dawley rats; settings: male, Sprague-Dawley, rat, plasma, po, 5 mg/kg, i.g., read-out: AUC0-t
assay_metric: AUC(0-t)

(Q) Return reported AUC(0-t); argument: c1csc([C@@H]2CNCCO2)c1 [Compound 50B]
(A) ~18.9 µM·h

----------
assay: Permeability and transporter substrate evaluation in Caco-2 cells; type: in vitro ADME; conditions: human, Caco-2
assay_metric: efflux ratio at 120 min
Reply briefly: the number, and no unit.

(Q) Can you look up the measured efflux ratio at 120 min of c1csc([C@@H]2CNCCO2)c1 [Compound 50B] for me?
(A) 0.781

----------
experiment: Liver microsomal stability, human; settings: human, liver microsomes
assay_metric: half-life (min)
Your answer is read as min, so omit the unit and give the number.

(Q) // query half-life value for entry c1csc([C@@H]2CNCCO2)c1 [Compound 50B]
(A) 161

----------
assay: Pharmacokinetics study in rats; assay type: in vivo, Sprague–Dawley rats; conditions: male, Sprague-Dawley, rat, plasma, iv, 2 mg/kg, i.v., read-out: AUC0-t
assay_metric: AUC(0-t) (µM·h)
Enter your answer as a number in µM·h; do not include the unit.

(Q) // AUC(0-t) lookup, key: c1csc([C@@H]2CNCCO2)c1 [Compound 50B]
(A) 8.98
